biological target: Adenosine kinase (Homo sapiens); experiment: Activity of human ADK expressed in Escherichia coli BL21(DE3) cells assessed as compound phosphorylation by measuring conversion of compound to 5'-phosphate; set-up: concentration or dose not given beside the values
Sequence (P55263 2-362 limits assumed): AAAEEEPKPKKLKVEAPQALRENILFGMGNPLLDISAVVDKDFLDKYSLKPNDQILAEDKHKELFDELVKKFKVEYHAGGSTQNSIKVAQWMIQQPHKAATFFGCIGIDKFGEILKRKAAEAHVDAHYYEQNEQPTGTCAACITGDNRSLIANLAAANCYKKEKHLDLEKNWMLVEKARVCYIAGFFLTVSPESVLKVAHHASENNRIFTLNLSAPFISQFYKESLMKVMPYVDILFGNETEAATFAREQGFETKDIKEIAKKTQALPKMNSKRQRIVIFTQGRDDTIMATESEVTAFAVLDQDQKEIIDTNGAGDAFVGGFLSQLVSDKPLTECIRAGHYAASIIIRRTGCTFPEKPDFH
Decide using Activity alone. Strictly below 8%: fulfilled. Equal to or above 8%: not fulfilled.

Reference set (6 entries):
[[record]]
sample_smiles = "Nc1ncnc2c1c(-c1ccsc1)cn2[C@@H]1O[C@H](CO)[C@@H](O)[C@H]1O"
group_label = "fulfilled"

[[record]]
sample_smiles = "Nc1ncnc2c1c(-c1cc[nH]c1)cn2[C@@H]1O[C@H](CO)[C@@H](O)[C@H]1O"
group_label = "not fulfilled"

[[record]]
sample_smiles = "Nc1ncnc2c1c(-c1ccc[nH]1)cn2[C@@H]1O[C@H](CO)[C@@H](O)[C@H]1O"
group_label = "fulfilled"

[[record]]
sample_smiles = "Nc1ncnc2c1c(-c1cn[nH]c1)cn2[C@@H]1O[C@H](CO)[C@@H](O)[C@H]1O"
group_label = "not fulfilled"

[[record]]
sample_smiles = "Nc1ncnc2c1c(-c1ncc[nH]1)cn2[C@@H]1O[C@H](CO)[C@@H](O)[C@H]1O"
group_label = "not fulfilled"

[[record]]
sample_smiles = "Nc1ncnc2c1c(-c1ccoc1)cn2[C@@H]1O[C@H](CO)[C@@H](O)[C@H]1O"
group_label = "not fulfilled"


In the following, a different compound is considered.
Query :: Consider the compound "Nc1ncnc2c1c(-c1cccs1)cn2[C@@H]1O[C@H](CO)[C@@H](O)[C@H]1O" . Is its Activity strictly less than 8%?
Result :: fulfilled
